- Test system: M. Smegmatis (ATCC607)
- assay.remarks: In-vitro anti-bacterial activity against strain M. smegmatis ATCC607
- Type: cell-based
- measurement.context: 90% inhibitory concentration for bacterial growth, 48 hours, Alamar Blue fluorescence
For each of the compounds below, state its IC90 values MSM 1 ATCC607.
Report only the number, with the unit µg/mL understood.

// lookup IC90 values MSM 1 ATCC607 for C=Cc1ccc2nc(OC)c(C(c3ccccc3)C(O)(CCc3ccc(F)cc3)CCN(C)C)cc2c1 (single isomer, unassigned) [Compound 6]
0.1

// lookup IC90 values MSM 1 ATCC607 for COc1nc2ccc(CN(C)C)cc2cc1C(c1ccccc1)C(O)(CCN(C)C)c1cccc2ccccc12 (single isomer, unassigned) [Compound 22]
18.9

// lookup IC90 values MSM 1 ATCC607 for C=Cc1ccc2nc(OC)c(C(c3ccccc3)C(O)(CCCCN3CCCCC3)c3ccccc3)cc2c1 (single isomer, unassigned)
1.7

// lookup IC90 values MSM 1 ATCC607 for COc1nc2ccc(CN)cc2cc1C(c1ccccc1)C(O)(CCN(C)C)c1cccc2ccccc12 (stereo not drawn) [Compound 18]
0.4

// lookup IC90 values MSM 1 ATCC607 for COc1nc2ccc(/C=N/O)cc2cc1C(c1ccccc1)C(O)(CCCCN(C)C)c1ccc2ccccc2c1 (single isomer, unassigned) [Compound 33]
1.7

// lookup IC90 values MSM 1 ATCC607 for COc1nc2ccc(N3CCOCC3)cc2cc1C(c1ccccc1)C(O)(CCN(C)C)c1ccccc1 (single isomer, unassigned) [Compound 5]
0.04

// lookup IC90 values MSM 1 ATCC607 for C/C=C/c1ccc2nc(OC)c(C(c3ccccc3)C(O)(CCN(C)C)c3cccc4ccccc34)cc2c1 (single isomer, unassigned) [Compound 11]
0.01

// lookup IC90 values MSM 1 ATCC607 for COc1nc2ccc(N)cc2cc1C(c1ccccc1)C(O)(CCN(C)C)c1cccc2ccccc12 (single isomer, unassigned) [Compound 16]
7.8

// lookup IC90 values MSM 1 ATCC607 for CC#Cc1ccc2nc(OC)c(C(c3ccccc3)C(O)(CCN(C)C)c3cccc4ccccc34)cc2c1 (single isomer, unassigned) [Compound 14]
0.3

// lookup IC90 values MSM 1 ATCC607 for C=Cc1ccc2nc(OC)c(C(c3ccccc3)C(O)(CCc3ccc(F)cc3)CCN(C)C)cc2c1 (single isomer, unassigned) [Compound 7]
1.3

// lookup IC90 values MSM 1 ATCC607 for COc1nc2ccc(/C=N/O)cc2cc1C(c1ccccc1)C(O)(CCN(C)C)c1cccc2ccccc12 (single isomer, unassigned) [Compound 23]
0.3

// lookup IC90 values MSM 1 ATCC607 for CO/N=C/c1ccc2nc(OC)c(C(c3ccccc3)C(O)(CCN(C)C)c3cccc4ccccc34)cc2c1 (single isomer, unassigned)
0.3
